target: Tyrosine-protein kinase BTK (Homo sapiens, UniProt Q06187); test: Binding affinity to biotinylated and unactivated BTK (unknown origin) incubated for 1 hr by TR-FRET assay
Sequence (Q06187 whole entry): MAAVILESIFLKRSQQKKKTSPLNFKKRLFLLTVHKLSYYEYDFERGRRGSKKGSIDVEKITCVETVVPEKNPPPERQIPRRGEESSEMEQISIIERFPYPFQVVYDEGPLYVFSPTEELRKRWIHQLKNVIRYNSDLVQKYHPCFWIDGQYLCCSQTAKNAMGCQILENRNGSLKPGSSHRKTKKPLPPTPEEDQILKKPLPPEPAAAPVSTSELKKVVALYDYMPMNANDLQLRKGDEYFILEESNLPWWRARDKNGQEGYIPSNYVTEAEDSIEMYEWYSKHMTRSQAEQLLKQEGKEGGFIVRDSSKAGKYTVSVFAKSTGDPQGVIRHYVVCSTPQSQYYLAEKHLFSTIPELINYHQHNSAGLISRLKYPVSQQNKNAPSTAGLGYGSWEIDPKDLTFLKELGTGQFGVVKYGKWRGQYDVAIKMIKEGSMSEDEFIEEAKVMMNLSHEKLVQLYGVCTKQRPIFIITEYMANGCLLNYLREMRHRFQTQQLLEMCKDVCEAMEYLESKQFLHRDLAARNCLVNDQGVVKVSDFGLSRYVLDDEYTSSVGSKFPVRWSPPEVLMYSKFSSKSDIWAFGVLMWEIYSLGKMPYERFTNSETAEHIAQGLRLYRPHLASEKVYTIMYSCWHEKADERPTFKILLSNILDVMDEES
Rule: Kd below 6 nM gives Condition met, anything at or above gives Condition not met.

Task: Decide: Kd of Cc1c(NC(=O)c2ccc(C(C)(C)C)cc2)cccc1-c1cn(C)c(=O)c(Nc2ccc(C(=O)NCCOCCOCCNC(=S)Nc3ccc(-c4c5ccc(=O)cc-5oc5cc(O)ccc45)c(C(=O)O)c3)cc2)n1 strictly below 6 nM?
Result: Condition not met

Task: Decide: Kd of Cc1c(NC(=O)c2ccc(C(C)(C)C)cc2)cccc1-c1cn(C)c(=O)c(Nc2ccc(C(=O)NCCCCNC(=S)Nc3ccc(-c4c5ccc(=O)cc-5oc5cc(O)ccc45)c(C(=O)O)c3)cc2)n1 strictly below 6 nM?
Result: Condition met

Task: Decide: Kd of Cc1c(NC(=O)c2ccc(C(C)(C)C)cc2)cccc1-c1cn(C)c(=O)c(Nc2ccc(C(=O)N3CCOC(CNC(=S)Nc4ccc(-c5c6ccc(=O)cc-6oc6cc(O)ccc56)c(C(=O)O)c4)C3)cc2)n1 (stereo unspecified) strictly below 6 nM?
Result: Condition met

Task: Decide: Kd of Cc1c(NC(=O)c2ccc(C(C)(C)C)cc2)cccc1-c1cn(C)c(=O)c(Nc2ccc(C(=O)N3CCN(C(=S)Nc4ccc(-c5c6ccc(=O)cc-6oc6cc(O)ccc56)c(C(=O)O)c4)CC3)cc2)n1 strictly below 6 nM?
Result: Condition met

Task: Decide: Kd of Cc1c(NC(=O)c2ccc(C(C)(C)C)cc2)cccc1-c1cn(C)c(=O)c(Nc2ccc(C(=O)NCCCNC(=S)Nc3ccc(-c4c5ccc(=O)cc-5oc5cc(O)ccc45)c(C(=O)O)c3)cc2)n1 strictly below 6 nM?
Result: Condition not met

----------
For each entry below, report its IC50 value.
target: Tyrosine-protein kinase BTK (Homo sapiens, UniProt Q06187); assay: Inhibition of biotinylated and unactivated BTK (unknown origin) using FITC-labeled Srctide peptide substrate and ATP
Report only the number, with the unit nM understood.

Task: Field request: IC50 | item: CC(=O)Nc1cccc(NC(=O)c2ccc(CN3CCN(C)CC3)cc2)c1
Result: 4700

Task: Field request: IC50 | item: Cc1c(NC(=O)c2ccc(C(C)(C)C)cc2)cccc1-c1cn(C)c(=O)c(Nc2ccc(C(=O)NCCCCNC(=S)Nc3ccc(-c4c5ccc(=O)cc-5oc5cc(O)ccc45)c(C(=O)O)c3)cc2)n1
Result: 4.3

Task: Field request: IC50 | item: Cc1c(NC(=O)c2ccc(C(C)(C)C)cc2)cccc1-c1cn(C)c(=O)c(Nc2ccc(C(=O)N3CCOC(CNC(=S)Nc4ccc(-c5c6ccc(=O)cc-6oc6cc(O)ccc56)c(C(=O)O)c4)C3)cc2)n1 (configuration not stated)
Result: 4.8

Task: Field request: IC50 | item: Cc1c(NC(=O)c2ccc(C(C)(C)C)cc2)cccc1-c1cn(C)c(=O)c(Nc2ccc(C(=O)NCCOCCOCCNC(=S)Nc3ccc(-c4c5ccc(=O)cc-5oc5cc(O)ccc45)c(C(=O)O)c3)cc2)n1
Result: 7.8

Task: Field request: IC50 | item: Cc1c(NC(=O)c2ccc(C(C)(C)C)cc2)cccc1-c1cn(C)c(=O)c(Nc2ccc(C(=O)NCCCNC(=S)Nc3ccc(-c4c5ccc(=O)cc-5oc5cc(O)ccc45)c(C(=O)O)c3)cc2)n1
Result: 3.2

Task: Field request: IC50 | item: Cc1c(NC(=O)c2ccc(C(C)(C)C)cc2)cccc1-c1cn(C)c(=O)c(Nc2ccc(C(=O)NCCNC(=S)Nc3ccc(-c4c5ccc(=O)cc-5oc5cc(O)ccc45)c(C(=O)O)c3)cc2)n1
Result: 5.6

Task: Field request: IC50 | item: Cc1c(NC(=O)c2ccc(C(C)(C)C)cc2)cccc1-c1cn(C)c(=O)c(Nc2ccc(C(=O)N3CCN(C(=S)Nc4ccc(-c5c6ccc(=O)cc-6oc6cc(O)ccc56)c(C(=O)O)c4)CC3)cc2)n1
Result: 0.61
